From: patent US5411983A

tested on: PAF induced vascular permeability change in mouse skin; experiment: Inhibition of PAF induced vascular permeability change in mouse skin; assay type: in vivo, mouse (Hilltop ICR); settings: ip, 0.5 h, test compound i.p., PAF i.d., read-out: Inhibition of Vascular Permeability Lesion (ED50 mg/kg)
Listed here: items and their measured ED50.
READOUT LABEL: ED50 (mg/kg)

> print(dat)
                                   molecule                              assay.system  readout.label  meas.value
1  CCCCCCCCCCCCCCCCOCC(COP(=O)([O-])Oc1cccc(C[n+]2csc(C)c2)c1)OC (stereo not shown)  PAF induced vascular permeability change in mouse skin           ED50         4.8
2  COC(COc1ccc(OCc2ccccc2)cc1)COP(=O)([O-])Oc1cccc(C[n+]2ccsc2)c1 (stereo not shown)  PAF induced vascular permeability change in mouse skin           ED50          20
3  CCCCCCCCCCCCCCCCCCNC(=O)OCC(COP(=O)([O-])Oc1cccc(C[n+]2ccsc2)c1)OC (stereo not shown)  PAF induced vascular permeability change in mouse skin           ED50         6.2
4  CCCCCCCCCCCCCCCCCCNC(=O)OCC(COP(=O)([O-])Oc1ccccc1C[n+]1ccsc1)OC (stereo not shown)  PAF induced vascular permeability change in mouse skin           ED50           5
5  CCCCCCCCCCCCCCCCOCC(COP(=O)([O-])Oc1cccc(C[n+]2ccsc2)c1)OC (stereo not shown)  PAF induced vascular permeability change in mouse skin           ED50         5.6
6  CCCCCCCCCCCCCCc1cccc(OCC(COP(=O)([O-])Oc2cccc(C[n+]3ccsc3)c2)OC)c1 (stereo not shown)  PAF induced vascular permeability change in mouse skin           ED50         5.3
7  CCCCCCCCCCCCOc1cccc(OCC(COP(=O)([O-])Oc2cccc(C[n+]3ccsc3)c2)OC)c1C (stereo not shown)  PAF induced vascular permeability change in mouse skin           ED50         8.2

----------
target: PAF receptor (Oryctolagus cuniculus); test: Inhibition of PAF induced platelet aggregation in rabbit platelet rich plasma (PRP); assay type: cell-based, rabbit (male New Zealand White); design: immediately centrifuged at 800 rpm for 10 minutes at room temperature to recover the platelet rich plasma (PRP); endogenous in cells; host or cells: rabbit platelets in platelet rich plasma (male New Zealand White rabbits); settings: PAF challenge 5E-8M; rabbit platelet rich plasma; read-out: IC50 (M) PRP, inhibition of PAF-induced platelet aggregation
Listed here: items and their measured log10 of IC50.
READOUT LABEL: log10 of IC50 (log10 of the value in M)

> print(dat)
                                   compound  meas.value
1  CCCCCCCCCCCCCCCCOCC(COCc1cccc(C[n+]2ccsc2)c1)OC (stereo not drawn)       -5.89
2  CCCCCCCCCCCCCCCCOCC(COC(=O)c1cccc(C[N+](C)(C)C)c1)OC (stereo not drawn)       -4.51
3  CCCCCCCCCCCCCCCCOCC(COCc1cccc(Cn2ccnc2)c1)OC (stereo not drawn)       -4.24
4  CCCCCCCCCCCCCCCCOCC(COC(=O)c1cccc(C[n+]2ccccn2)c1)OC (stereo not drawn)       -4.96
5  CCCCCCCCCCCCCCCCOCC(COC(=O)c1cccc(C[n+]2ccsc2)c1)OC (stereo not drawn)       -5.44
6  CCCCCCCCCCCCCCCCOCC(COCc1cccc(Cn2cc[n+](C)c2)c1)OC (stereo not drawn)       -5.47

----------
Listed here: items and their measured ED50.
tested on: PAF induced lethality; assay: PAF induced lethality in the mouse; format: in vivo, mouse (ICR); conditions: ip, 1 h, mice, test compound i.p. 1/2 hour before PAF i.v., dose that protects 1/2 the animals, read-out: PAF induced Lethality PD50 (mg/kg I.P., 1/2 hour)
READOUT LABEL: ED50

> print(dat)
                                   molecule           assay.system  readout.label    meas.value
1  CCCCCCCCCCCCCCCCOCC(COP(=O)([O-])Oc1cccc(C[n+]2csc(C)c2)c1)OC (stereo not drawn)  PAF induced lethality           ED50  < 1.25 mg/kg
2  CCCCCCCCCCCCOc1cccc(OCC(COP(=O)([O-])Oc2cccc(C[n+]3ccsc3)c2)OC)c1C (stereo not drawn)  PAF induced lethality           ED50  < 1.25 mg/kg
3  COC(COc1ccc(OCc2ccccc2)cc1)COP(=O)([O-])Oc1cccc(C[n+]2ccsc2)c1 (stereo not drawn)  PAF induced lethality           ED50    < 25 mg/kg
4  CCCCCCCCCCCCCCc1cccc(OCC(COP(=O)([O-])Oc2cccc(C[n+]3ccsc3)c2)OC)c1 (stereo not drawn)  PAF induced lethality           ED50  < 1.25 mg/kg
5  CCCCCCCCCCCCCCCCOCC(COP(=O)([O-])Oc1cccc(C[n+]2ccsc2)c1)OC (stereo not drawn)  PAF induced lethality           ED50  < 1.25 mg/kg
6  CCCCCCCCCCCCCCCCCCNC(=O)OCC(COP(=O)([O-])Oc1ccccc1C[n+]1ccsc1)OC (stereo not drawn)  PAF induced lethality           ED50   < 2.5 mg/kg

----------
target: PAF receptor (Oryctolagus cuniculus, UniProt G1TEI7); assay: Inhibition of PAF induced platelet aggregation in rabbit platelet rich plasma (PRP); assay type: cell-based, rabbit (male New Zealand White); design: immediately centrifuged at 800 rpm for 10 minutes at room temperature to recover the platelet rich plasma (PRP); endogenous in cells; host or cells: rabbit platelets in platelet rich plasma (male New Zealand White rabbits); conditions: IC50 (M) PRP, inhibition of PAF-induced platelet aggregation, PAF challenge 5E-8M; rabbit platelet rich plasma
Sequence (G1TEI7 1-342): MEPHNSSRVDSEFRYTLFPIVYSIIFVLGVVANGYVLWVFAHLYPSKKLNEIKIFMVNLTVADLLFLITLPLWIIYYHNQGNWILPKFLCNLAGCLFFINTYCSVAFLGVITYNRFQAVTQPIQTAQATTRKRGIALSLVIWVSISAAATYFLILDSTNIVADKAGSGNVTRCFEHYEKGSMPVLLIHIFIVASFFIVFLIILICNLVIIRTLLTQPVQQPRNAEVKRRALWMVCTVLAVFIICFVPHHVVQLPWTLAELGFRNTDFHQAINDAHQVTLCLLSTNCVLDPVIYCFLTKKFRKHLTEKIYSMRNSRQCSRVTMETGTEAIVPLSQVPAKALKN
Listed here: items and their measured log10 IC50.
READOUT LABEL: log10 IC50 (log10 of the value in M)

> print(dat)
                                    molecule  meas.value
 1  CCCCCCCCCCCCCCCCOCC(COP(=O)([O-])Oc1cccc(C[n+]2ccsc2)c1)OC (stereo not shown)       -6.00
 2  CCCCCCCCCCCCOc1cccc(OCC(COP(=O)([O-])Oc2cccc(C[n+]3csc(C)c3)c2)OC)c1C (stereo not shown)       -6.03
 3  CCCCCCCCCCCCOc1cccc(OCC(COP(=O)([O-])Oc2cccc(C[n+]3ccccc3)c2)OC)c1C (stereo not shown)       -6.77
 4  CCCCCCCCCCCCCCCCCCOP(=O)([O-])Oc1cccc(C[n+]2ccccc2)c1       -4.38
 5  CCCCCCCCCCCCCCCCOCC(COP(=O)(O)Oc1cccc(C[P+](c2ccccc2)(c2ccccc2)c2ccccc2)c1)OC (stereo not shown)       -4.85
 6  C=C(C)COC(COCCCCCCCCCCCCCCCC)COP(=O)([O-])Oc1ccccc1C[n+]1ccsc1 (stereo not shown)       -5.59
 7  CCCCCCCCCCCCCCCCCCNC(=O)OCC(COP(=O)([O-])Oc1cccc(C[n+]2ccccc2)c1)OC (stereo not shown)       -5.36
 8  COC(CCCOCc1ccccc1)COP(=O)([O-])Oc1cccc(C[n+]2ccsc2)c1 (stereo not shown)       -4.00
 9  CCCCCCCCCCCCCCc1cccc(OCC(COP(=O)([O-])Oc2cccc(C[n+]3ccsc3)c2)OC)c1 (stereo not shown)       -6.09
10  COC(COc1ccc(OCc2ccccc2)cc1)COP(=O)([O-])Oc1cccc(C[n+]2ccsc2)c1 (stereo not shown)       -4.48
11  CCCCCCCCCCCCCCCCCCNC(=O)OCC(COP(=O)([O-])Oc1ccccc1C[n+]1ccsc1)OC (stereo not shown)       -6.25
12  CCCCCCCCCCCCCCCCCCOP(=O)([O-])Oc1cccc(C[n+]2ccsc2)c1       -4.66
13  CCCCCCCCCCCCOc1cccc(OCC(COP(=O)([O-])Oc2cccc(C[n+]3csc(CCO)c3C)c2)OC)c1C (stereo not shown)       -4.77
14  CCCCCCCCCCCCOc1cccc(OCC(COP(=O)([O-])Oc2cccc(C[n+]3cccc4ccccc43)c2)OC)c1C (stereo not shown)       -4.14
15  CCCCCCCCCCCCOc1cccc(OCC(COP(=O)([O-])Oc2cccc(C[N+](C)(C)C)c2)OC)c1C (stereo not shown)       -5.22
16  CCCCCCCCCCOCCOCCOCC(COP(=O)([O-])Oc1cccc(C[n+]2ccsc2)c1)OC (stereo not shown)       -5.08
17  CCCCCCCCCCCCCCCCOCC(COP(=O)([O-])Oc1cccc(C[n+]2csc(C)c2)c1)OC (stereo not shown)       -6.09
18  C=C(C)COC(COCCCCCCCCCCCCCCCC)COP(=O)([O-])Oc1cccc(C[n+]2ccsc2)c1 (stereo not shown)       -5.68
19  CCCCCCCCCCCCOc1cccc(OCC(COP(=O)([O-])Oc2cccc(C[n+]3ccsc3)c2)OC)c1C (stereo not shown)       -5.64
